Attribution: BindingDB's records for doi:10.1007/s10822-022-00478-x

# target-or-system: cAMP and cAMP-inhibited cGMP 3',5'-cyclic phosphodiesterase 10A (Homo sapiens, UniProt Q9Y233)
# Sequence (Q9Y233 as listed by the source): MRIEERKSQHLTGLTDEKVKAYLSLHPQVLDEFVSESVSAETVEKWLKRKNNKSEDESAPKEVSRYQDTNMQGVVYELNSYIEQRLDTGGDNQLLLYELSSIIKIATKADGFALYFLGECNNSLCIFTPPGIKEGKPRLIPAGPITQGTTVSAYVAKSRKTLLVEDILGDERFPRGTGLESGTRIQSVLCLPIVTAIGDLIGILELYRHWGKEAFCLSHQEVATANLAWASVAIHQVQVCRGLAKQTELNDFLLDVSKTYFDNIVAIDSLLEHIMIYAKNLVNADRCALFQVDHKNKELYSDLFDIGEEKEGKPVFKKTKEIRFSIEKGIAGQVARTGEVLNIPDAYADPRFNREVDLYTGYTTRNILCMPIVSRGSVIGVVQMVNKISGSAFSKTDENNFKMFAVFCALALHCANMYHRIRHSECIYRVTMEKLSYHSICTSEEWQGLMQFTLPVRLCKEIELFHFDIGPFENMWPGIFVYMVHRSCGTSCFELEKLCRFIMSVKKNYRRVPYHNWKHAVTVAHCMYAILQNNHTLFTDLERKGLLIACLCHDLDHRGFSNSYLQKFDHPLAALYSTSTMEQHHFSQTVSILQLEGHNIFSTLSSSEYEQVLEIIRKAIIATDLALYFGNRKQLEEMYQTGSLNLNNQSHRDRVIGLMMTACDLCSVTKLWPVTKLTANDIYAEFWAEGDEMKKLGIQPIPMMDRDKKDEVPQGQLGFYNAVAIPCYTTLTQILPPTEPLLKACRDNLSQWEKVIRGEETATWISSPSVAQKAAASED
# IC50 annotations

# compound, u, IC50
measured = [
    ("CSc1nc2cc(NC(=O)c3c(C(=O)N4CCC4)cnn3C)ccc2s1 [Roche-Dataset for PDE10A, Compound 840]", "nM", 331),
    ("CCc1cc(C(F)(F)F)c2nc(CCc3nc(N4CCCC4)nn3C)nn2c1C [Roche-Dataset for PDE10A, Compound 171]", "nM", 3.37),
    ("CNC(=O)c1nn(C)cc1NC(=O)c1nc(C2CC2)ccc1N(C)c1cncnc1 [Roche-Dataset for PDE10A, Compound 1122]", "nM", 10000),
    ("CCNC(=O)c1c(NC(=O)c2c(C(=O)N3CCC3)cnn2C)cnn1CC [Roche-Dataset for PDE10A, Compound 1076]", "nM", 1920),
    ("COc1ccc(Cn2ccc(NC(=O)c3c(C(=O)N4CCC4)cnn3C)n2)cc1 [Roche-Dataset for PDE10A, Compound 977]", "nM", 79),
    ("O=C(Nc1cc(-c2ccccn2)no1)c1nc(C2CC2)ccc1Nc1cncnc1", "nM", 3.85),
    ("Cn1ncc(C(=O)N2CCC2)c1C(=O)Nc1ccn2nc(-c3cccc(OCCF)n3)nc2c1 [Roche-Dataset for PDE10A, Compound 66]", "nM", 5.36),
    ("Cn1ncc(C(=O)N2CCC2)c1C(=O)Nc1ccn(C2CCCCC2)n1 [Roche-Dataset for PDE10A, Compound 1064]", "nM", 242),
    ("Cc1c(Cl)cc(C(F)(F)F)c2nc(/C=C/c3nc(Br)nn3C)nn12 [Roche-Dataset for PDE10A, Compound 764]", "nM", 115),
    ("CCn1nc(CCc2nc3c(C)ncc(C)n3n2)nc1N1CCCC1 [Roche-Dataset for PDE10A, Compound 533]", "nM", 29),
    ("Cc1ncc(Nc2cncnc2)c(C(=O)N[C@@H]2CCN(c3ccc(Cl)cn3)C2)n1 [Roche-Dataset for PDE10A, Compound 336]", "nM", 242),
    ("O=C(Nc1cncc(OC(F)F)c1)c1nc(C2CC2)cnc1Nc1cncnc1 [Roche-Dataset for PDE10A, Compound 855]", "nM", 134),
    ("O=C(Nc1ccn(CC(F)(F)F)n1)c1nc(C2CC2)ccc1Nc1cncnc1 [Roche-Dataset for PDE10A, Compound 603]", "nM", 6.39),
    ("Cc1nc2ccccc2nc1CCc1nc(-c2ccccc2)cn1CC(F)(F)F [Roche-Dataset for PDE10A, Compound 72]", "nM", 178),
]
